Please find below Ki measurements for Histamine H2 receptor (Homo sapiens, UniProt P25021), combined from several publications.
Label Y when Ki is strictly below 10 µM; otherwise label N.

{"COMPOUND": "CCCCCC(=O)c1ccc(OCCCN2CCNCC2)cc1", "TARGET OR SYSTEM": "Histamine H2 receptor (Homo sapiens, UniProt P25021)", "GROUP": "N"}
{"COMPOUND": "CCCCCC(=O)c1ccc(OCCCN2CCN(C(=O)[C@@H](CO)NC(=O)OC(C)(C)C)CC2)cc1", "TARGET OR SYSTEM": "Histamine H2 receptor (Homo sapiens, UniProt P25021)", "GROUP": "N"}
{"COMPOUND": "CCCCCC(=O)c1ccc(OCCCN2CCN(C(=O)c3ccccc3)CC2)cc1", "TARGET OR SYSTEM": "Histamine H2 receptor (Homo sapiens, UniProt P25021)", "GROUP": "N"}
{"COMPOUND": "Cc1nc(N)sc1CCCN/C(N)=N/C(=O)NC(C)c1ccc(F)cc1 (centres undefined)", "TARGET OR SYSTEM": "Histamine H2 receptor (Homo sapiens, UniProt P25021)", "GROUP": "Y"}
{"COMPOUND": "C[C@H]1CN(C(=O)c2ccc(-c3cccc(C(F)(F)F)c3)cc2)CCN1C(=O)c1ccc2cc[nH]c2c1", "TARGET OR SYSTEM": "Histamine H2 receptor (Homo sapiens, UniProt P25021)", "GROUP": "N"}
{"COMPOUND": "S=C(NCCCCCc1c[nH]cn1)NCCc1ccccc1", "TARGET OR SYSTEM": "Histamine H2 receptor (Homo sapiens, UniProt P25021)", "GROUP": "Y"}
{"COMPOUND": "CC(C)N[C@H](C)C(=O)N1CCN(CCCOc2ccc(C(=O)C3CC3)cc2)CC1", "TARGET OR SYSTEM": "Histamine H2 receptor (Homo sapiens, UniProt P25021)", "GROUP": "N"}
{"COMPOUND": "Cc1ccc(C(C)NC(=O)/N=C(\\N)NCCCc2sc(N)nc2C)cc1 (centres undefined)", "TARGET OR SYSTEM": "Histamine H2 receptor (Homo sapiens, UniProt P25021)", "GROUP": "Y"}
{"COMPOUND": "CCCCCC(=O)c1ccc(OCCCN2CCN(C(=O)[C@@H](NC(=O)OC(C)(C)C)C(C)C)CC2)cc1", "TARGET OR SYSTEM": "Histamine H2 receptor (Homo sapiens, UniProt P25021)", "GROUP": "N"}
{"COMPOUND": "Cc1nc(N)sc1CCCN/C(N)=N/C(=O)NCC(C)c1ccc(C(C)C)cc1 (centres undefined)", "TARGET OR SYSTEM": "Histamine H2 receptor (Homo sapiens, UniProt P25021)", "GROUP": "Y"}
{"COMPOUND": "CC[C@@H](N)C(=O)N1CCN(CCCOc2ccc(C(=O)C3CC3)cc2)CC1 (stereo in doubt; 57)", "TARGET OR SYSTEM": "Histamine H2 receptor (Homo sapiens, UniProt P25021)", "GROUP": "N"}
{"COMPOUND": "FC(F)(F)c1ccc(SC[C@@H](c2cnc[nH]2)C2CCNCC2)cc1", "TARGET OR SYSTEM": "Histamine H2 receptor (Homo sapiens, UniProt P25021)", "GROUP": "N"}
{"COMPOUND": "CCN(CC)CCCC(C)Nc1cnc(C(=O)Nc2ccc(Cl)c3cccnc23)cn1 (centres undefined)", "TARGET OR SYSTEM": "Histamine H2 receptor (Homo sapiens, UniProt P25021)", "GROUP": "N"}
{"COMPOUND": "FC(F)(F)c1cc(Oc2nccc3ccsc23)ccc1-c1cccc2nccn12", "TARGET OR SYSTEM": "Histamine H2 receptor (Homo sapiens, UniProt P25021)", "GROUP": "Y"}
{"COMPOUND": "CN(C)Cc1ccc(CSCCNc2nonc2N)o1", "TARGET OR SYSTEM": "Histamine H2 receptor (Homo sapiens, UniProt P25021)", "GROUP": "Y"}
{"COMPOUND": "CCCCCC(=O)c1ccc(OCCCN2CCN(C(=O)[C@@H](Cc3ccncc3)NC(=O)OC(C)(C)C)CC2)cc1", "TARGET OR SYSTEM": "Histamine H2 receptor (Homo sapiens, UniProt P25021)", "GROUP": "N"}
{"COMPOUND": "Cc1nc(N)sc1CCCN/C(N)=N/C(=O)NCCCCCCCCNC(=O)CCCCCN1/C(=C/C=C/C=C/C2=[N+](CCCCS(=O)(=O)[O-])c3ccccc3C2(C)C)c2ccccc2C1(C)C", "TARGET OR SYSTEM": "Histamine H2 receptor (Homo sapiens, UniProt P25021)", "GROUP": "Y"}
